# Tested on: PfSIP2 AP2 domain 1 (GST-tagged)
# ASSAY METHOD TEXT: gcPBM binding intensity (ln(normalized median fluorescence intensity)); higher = stronger DNA binding
In all, about 25,000 sequences were measured (“ln(normalized median fluorescence intensity)”: median about 7.1, highest 2% from about 10 on). Many of the other results were omitted from the sample, so the highest values are more common in it than they were.
I'd appreciate it if you could supply gcPBM binding intensity (ln) values for the items below.
Respond using a number only.

Req: Given the entry ATAATAAAAAAAATTAGTACATATATAAATATAAAT [XGTACX_site1937] , report its measured gcPBM binding intensity (ln).
Resp: 6.85

Req: Given the entry TAAAAATAAATAAATACATGCACCAAAAATAAATTT [TGCATGCA_site801] , report its measured gcPBM binding intensity (ln).
Resp: 10.2

Req: Given the entry AATCCTTCATATGTAGTGCATATTAACAAAATAAAA [GTGCAC_site9500] , report its measured gcPBM binding intensity (ln).
Resp: 8.78

Req: Given the entry TTAAAAAAATATAATACACACCAAAAATATGCACAT [CACACA_site5209] , report its measured gcPBM binding intensity (ln).
Resp: 9.27

Req: Given the entry ATTAAAAAATCCATAGTGCACTACGATAGGTTCCGA [GTGCAC_site9463] , report its measured gcPBM binding intensity (ln).
Resp: 10.5
